Recorded values, source patent US20250361230A1.

TARGET DESC: AKT (Homo sapiens, UniProt P31749)
Sequence (P31749 whole entry): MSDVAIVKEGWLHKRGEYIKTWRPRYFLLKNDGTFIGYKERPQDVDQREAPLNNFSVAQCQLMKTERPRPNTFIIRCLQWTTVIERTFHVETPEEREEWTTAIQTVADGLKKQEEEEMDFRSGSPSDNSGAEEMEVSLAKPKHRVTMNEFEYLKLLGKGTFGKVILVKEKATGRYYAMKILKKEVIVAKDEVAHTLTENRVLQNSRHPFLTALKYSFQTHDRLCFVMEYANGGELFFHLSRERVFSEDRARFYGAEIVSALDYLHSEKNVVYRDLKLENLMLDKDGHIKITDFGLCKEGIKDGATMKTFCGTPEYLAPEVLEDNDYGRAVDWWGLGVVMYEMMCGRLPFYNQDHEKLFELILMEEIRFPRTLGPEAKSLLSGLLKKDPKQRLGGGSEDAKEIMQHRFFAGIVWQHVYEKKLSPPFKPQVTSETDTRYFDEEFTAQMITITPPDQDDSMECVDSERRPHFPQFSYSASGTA
ASSAY EXPLANATION: RBC HotSpot kinase assay (33P-ATP, P81 filter-binding), AKT
Assay type: biochemical
EXPERIMENTAL CONTEXT: Table 28, biochemical kinase assay; read-out: AKT IC50
We begin with a simple list: items and their reported pIC50.
# pIC50 is unitless: minus log10 of the molar concentration; print number only

Example cases with answers are listed next.
| MOLECULE | pIC50 |
| --- | --- |
| Cc1nc(-c2ccnc3[nH]cc(F)c23)ccc1C1(O)CCNCC1 | 5.18 |
| CN1CC(O)(c2ccc(-c3ccnc4[nH]cc(F)c34)cc2Cl)C1 | 5.93 |
| CCN(CC)c1cc(-c2ccnc3[nH]ccc23)ccc1CN | 7.00 |
| C[C@@H]1CN(C(=O)[C@@H]2COCCN2)C[C@H](C)C1(O)c1c(F)cc(-c2ccnc3[nH]cc(F)c23)cc1F (some centres unmarked) | 5.99 |

Could you now look at the following molecule, please?
Lookup: Identify the reported pIC50 for the following entry. `NCc1ccc(-c2ccnc3[nH]cc(-c4cccc(Cl)c4)c23)cc1`
Found: 5.99

###

TARGET DESC: AKT (Homo sapiens)
ASSAY EXPLANATION: RBC HotSpot kinase assay (33P-ATP, P81 filter-binding), AKT
Type: biochemical
EXPERIMENTAL CONTEXT: Table 28, biochemical kinase assay; read-out: AKT IC50
Rule: IC50 below 1000 nM gives 1 (yes). Equal to or above 1000 nM gives 0 (no).

Solved cases (3 shown):
| MOLECULE | ASSIGNED CLASS |
| --- | --- |
| CN1[C@@H]2CC[C@H]1CC(O)(c1ccc(-c3ccnc4[nH]cc(F)c34)cc1)C2 (stereo partly drawn) | 1 (yes) |
| C[C@@H]1CN(C2CCS(=O)(=O)CC2)C[C@H](C)[C@@]1(O)c1ccc(-c2ccnc3[nH]cc(F)c23)cc1Cl | 1 (yes) |
| Cc1c[nH]c2nccc(-c3ccc([C@@]4(O)[C@H](C)CNC[C@@H]4C)cn3)c12 | 0 (no) |

// next entry
Lookup: Problem: For the molecule `Cc1cc(-c2ccnc3[nH]ccc23)ccc1C1CCNCC1` , is IC50 under 1000 nM?
Found: 1 (yes)

###

TARGET DESC: AKT Kinase-NanoLuc fusion in HEK-293 cells (Homo sapiens)
Construct: host or cells: HEK-293
ASSAY EXPLANATION: NanoBRET target engagement assay in transfected HEK-293 cells, AKT
Format: cell-based
EXPERIMENTAL CONTEXT: Table 28, NanoBRET, HEK-293 cells; read-out: AKT1 (Cellular) IC50
EXPERIMENTAL ENDPOINT: IC50

Take a look at these entries with their results.
| COMPOUND | IC50 |
| --- | --- |
| OC1(c2ccc(-c3ccnc4[nH]ccc34)cc2)CCNCC1 [Compound 111] | > 50 µM |
| C[C@@H]1CN(C)C[C@H](C)[C@@]1(O)c1ccc(-c2ccnc3[nH]cc(F)c23)cc1 [Compound 39] | > 50 µM |

--- query ---
Lookup: Give IC50 for OC1(c2ccc(-c3ccnc4[nH]cc(F)c34)cc2)CC2(CNC2)C1 [Compound 319]
Found: 44.8 µM

###

TARGET DESC: LATS1 (Homo sapiens)
ASSAY EXPLANATION: RBC HotSpot kinase assay (33P-ATP, P81 filter-binding), LATS1
Assay type: biochemical
EXPERIMENTAL CONTEXT: Table 28, biochemical kinase assay; read-out: LATS1 IC50
Please map values of IC50 to classes as shown: bin 0 = under 9 nM, bin 1 = from 9 nM up to 30 nM, bin 2 = 30 nM and over

Lookup: Hi, small favor: classify `CNCC(=O)N1C[C@@H](C)[C@](O)(c2c(C)cc(-c3ccnc4[nH]cc(F)c34)cc2F)[C@@H](C)C1` by its IC50 when you get a moment.
Found: bin 0

Lookup: Hi there! Could you help me figure out the category for `C[C@@H]1CNC[C@H](C)[C@@]1(O)c1ccc(-c2ccnc3[nH]cc(F)c23)nc1` please?
Found: bin 2

Lookup: Exercise: read the entry `NC(=O)c1ccc(-c2cc(-c3ccnc4[nH]ccc34)ccc2C2CCNCC2)cc1` and state which class it falls under.
Found: bin 2

Lookup: Which bin should I file `C=C(C)c1c[nH]c2nccc(-c3ccc(CN)cc3)c12` under?
Found: bin 1

Lookup: Hi, small favor: classify `CC(C)(N)c1ccc(-c2ccnc3[nH]ccc23)cc1Cl` by its IC50 when you get a moment.
Found: bin 1

###

Listing of recorded pIC50 by entry.
TARGET DESC: LATS1 (Homo sapiens, UniProt O95835)
Sequence (O95835 whole entry): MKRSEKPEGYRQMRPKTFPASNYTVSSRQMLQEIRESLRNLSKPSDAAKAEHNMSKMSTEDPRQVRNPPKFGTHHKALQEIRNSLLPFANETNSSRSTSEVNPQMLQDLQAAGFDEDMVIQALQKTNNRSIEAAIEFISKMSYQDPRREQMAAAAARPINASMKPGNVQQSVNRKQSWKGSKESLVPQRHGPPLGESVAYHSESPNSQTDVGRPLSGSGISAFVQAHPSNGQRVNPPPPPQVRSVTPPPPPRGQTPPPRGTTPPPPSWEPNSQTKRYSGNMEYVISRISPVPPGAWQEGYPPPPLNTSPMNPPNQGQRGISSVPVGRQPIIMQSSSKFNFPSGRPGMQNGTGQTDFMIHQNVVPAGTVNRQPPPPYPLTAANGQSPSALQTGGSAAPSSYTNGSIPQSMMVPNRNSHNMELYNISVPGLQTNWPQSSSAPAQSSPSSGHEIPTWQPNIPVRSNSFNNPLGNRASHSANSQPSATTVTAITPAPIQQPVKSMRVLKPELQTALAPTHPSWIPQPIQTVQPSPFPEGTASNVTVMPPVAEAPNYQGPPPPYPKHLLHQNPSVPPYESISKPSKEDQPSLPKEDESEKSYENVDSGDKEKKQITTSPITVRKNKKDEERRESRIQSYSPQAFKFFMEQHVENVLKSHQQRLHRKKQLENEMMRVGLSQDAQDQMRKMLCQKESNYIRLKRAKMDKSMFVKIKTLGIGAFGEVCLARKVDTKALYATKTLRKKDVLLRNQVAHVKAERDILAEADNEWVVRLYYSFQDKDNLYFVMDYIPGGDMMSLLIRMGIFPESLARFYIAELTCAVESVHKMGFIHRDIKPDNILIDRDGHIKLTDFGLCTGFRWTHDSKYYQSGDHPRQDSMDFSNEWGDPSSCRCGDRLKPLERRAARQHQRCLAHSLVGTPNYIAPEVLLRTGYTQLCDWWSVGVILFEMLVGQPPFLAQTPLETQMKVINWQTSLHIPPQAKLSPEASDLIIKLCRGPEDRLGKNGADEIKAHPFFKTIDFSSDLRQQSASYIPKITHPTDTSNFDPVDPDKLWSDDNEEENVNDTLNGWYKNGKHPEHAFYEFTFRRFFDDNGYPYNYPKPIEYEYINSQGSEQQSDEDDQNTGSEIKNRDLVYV
ASSAY EXPLANATION: RBC HotSpot kinase assay (33P-ATP, P81 filter-binding), LATS1
Assay type: biochemical
EXPERIMENTAL CONTEXT: Table 28, biochemical kinase assay; read-out: LATS1 IC50
Formally, pIC50 is defined as -log10 of the concentration c, with c in mol/L.

The cases that follow already have their pIC50 on record.
| COMPOUND | RESULT VALUE |
| --- | --- |
| CN1[C@@H]2CC[C@H]1CC(O)(c1ccc(-c3ccnc4[nH]cc(F)c34)cc1)C2 (stereo partly shown) [Compound 133] | 7.70 |
| OC1(c2ccc(-c3ccnc4[nH]cc(Br)c34)cc2)C[C@H]2CC[C@@H](C1)N2 (stereo partly shown) [Compound 118] | 8.74 |
| Cc1cc2c(-c3ccc(CN)cc3)ccnc2[nH]1 [Compound 251] | 6.05 |
| C[C@@H]1CN(C(=O)C2CC(C)(C)C2)C[C@H](C)C1(O)c1c(F)cc(-c2ccnc3[nH]cc(F)c23)cc1F (stereo partly shown) [Compound 72] | 7.56 |
| CC(C)(N)c1ccc(-c2ccnc3[nH]cc(Br)c23)cc1-c1ccccc1 [Compound 207] | 8.40 |
| Fc1cnc2[nH]ccc2c1-c1ccc(C2CCNCC2)cc1 [Compound 186] | 7.44 |
| NCc1ccc(-c2ccnc3[nH]ccc23)cc1Cl [Compound 283] | 8.10 |
| C[C@@H]1CNC[C@H](C)[C@@]1(O)c1ccc(-c2ccnc3[nH]cc(F)c23)cc1F [Compound 7] | 7.80 |

# next compound below
Lookup: Provide pIC50 value for the following compound: Cc1cc(-c2ccnc3[nH]cc(F)c23)ccc1[C@@]1(O)[C@H](C)CNC[C@@H]1C [Compound 9]
Found: 8.03

###

TARGET DESC: LATS2 (Homo sapiens)
Sequence (Q9NRM7 1-1088): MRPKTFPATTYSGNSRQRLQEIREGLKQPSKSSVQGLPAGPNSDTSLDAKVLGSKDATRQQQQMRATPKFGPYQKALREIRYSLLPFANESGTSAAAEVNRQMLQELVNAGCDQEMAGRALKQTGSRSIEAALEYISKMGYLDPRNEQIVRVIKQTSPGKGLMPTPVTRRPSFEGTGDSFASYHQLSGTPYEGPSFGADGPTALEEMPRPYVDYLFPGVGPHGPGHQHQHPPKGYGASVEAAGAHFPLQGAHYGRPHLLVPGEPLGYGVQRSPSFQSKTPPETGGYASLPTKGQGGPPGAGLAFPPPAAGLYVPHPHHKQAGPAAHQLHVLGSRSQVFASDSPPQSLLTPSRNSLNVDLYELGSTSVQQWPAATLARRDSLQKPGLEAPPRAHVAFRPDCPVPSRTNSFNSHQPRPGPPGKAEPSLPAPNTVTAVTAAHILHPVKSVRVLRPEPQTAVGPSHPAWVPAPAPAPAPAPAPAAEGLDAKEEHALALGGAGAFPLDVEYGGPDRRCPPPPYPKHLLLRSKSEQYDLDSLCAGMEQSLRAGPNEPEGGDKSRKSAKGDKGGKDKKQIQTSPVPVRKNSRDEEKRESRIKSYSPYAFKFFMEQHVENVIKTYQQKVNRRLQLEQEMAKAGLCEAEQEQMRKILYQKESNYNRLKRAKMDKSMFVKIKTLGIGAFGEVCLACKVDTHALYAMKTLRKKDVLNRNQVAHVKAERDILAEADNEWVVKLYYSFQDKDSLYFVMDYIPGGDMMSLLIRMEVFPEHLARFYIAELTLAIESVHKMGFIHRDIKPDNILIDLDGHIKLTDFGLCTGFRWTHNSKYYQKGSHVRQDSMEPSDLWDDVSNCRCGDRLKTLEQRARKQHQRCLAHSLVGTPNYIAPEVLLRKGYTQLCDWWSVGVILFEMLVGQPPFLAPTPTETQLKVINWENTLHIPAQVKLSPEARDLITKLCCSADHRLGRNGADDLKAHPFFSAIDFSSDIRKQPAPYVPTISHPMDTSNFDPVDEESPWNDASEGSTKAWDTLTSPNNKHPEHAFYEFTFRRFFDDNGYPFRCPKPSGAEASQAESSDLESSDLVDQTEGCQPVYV
ASSAY EXPLANATION: RBC HotSpot kinase assay (33P-ATP, P81 filter-binding), LATS2
Assay type: biochemical
EXPERIMENTAL CONTEXT: Table 28, biochemical kinase assay; read-out: LATS2 IC50
EXPERIMENTAL ENDPOINT: pIC50
Lab note — pIC50 values are minus log10 of concentrations in M.

# example entries with known answers
| MOLECULE | pIC50 |
| --- | --- |
| NCc1ccc(-c2ccnc3[nH]ccc23)cc1F | 7.47 |
| Cc1cc(-c2ccnc3[nH]cc(F)c23)cc(F)c1[C@@]1(O)[C@H](C)CN(C(=O)[C@@H]2C[C@H](F)CN2)C[C@@H]1C | 8.49 |

Lookup: Fill in reported pIC50 for this entry: `Cc1cc(-c2ccnc3[nH]cc(F)c23)cc(F)c1[C@@]1(O)[C@H](C)CN(C(=O)[C@@H]2C[C@@H](F)CN2)C[C@@H]1C`
Found: 8.52

Lookup: Give a short answer stating reported pIC50 for `c1cc(-c2ccc(C3CCNCC3)cn2)c2cc[nH]c2n1` .
Found: 6.85

Lookup: Look up and state reported pIC50 for c1cc(-c2ccc(C3CC4CCCC(C3)N4)cc2)c2cc[nH]c2n1 (stereo not drawn)
Found: 7.02

Lookup: Please list pIC50 recorded for the molecule C[C@@H]1CN(C(=O)CN(C)C)C[C@H](C)C1(O)c1c(F)cc(-c2ccnc3[nH]cc(F)c23)cc1F (stereo partly drawn)
Found: 7.89

Lookup: Given `Clc1cc(-c2ccnc3[nH]ccc23)ccc1C1CCNCC1` , respond with its pIC50.
Found: 7.68

Lookup: Read the entry `OC1(c2c(F)cc(-c3ccnc4[nH]cc(F)c34)cc2F)CC2(CN(C3COC3)C2)C1` and write its reported pIC50.
Found: 6.93

Lookup: Quote pIC50 reported for `C[C@@H]1CN(C)C[C@H](C)[C@@]1(O)c1ccc(-c2ccnc3[nH]cc(F)c23)cc1Cl` please.
Found: 7.90
